# run.description: Inhibition of rat DNA polymerase in absence of bovine serum albumin
# IC50 annotations
Numbers only; they are read as µM.

CC1(C)CC[C@]2(C(=O)O)CC[C@]3(C)C(=CC[C@@H]4[C@@]5(C)CC[C@H](O)C(C)(C)[C@@H]5CC[C@]43C)[C@@H]2C1; 3.7

Attention now turns to another entry.
Enquiry: Given the molecule C[C@H]1[C@H](C)CC[C@]2(C(=O)O)CC[C@]3(C)C(=CC[C@@H]4[C@@]5(C)CC[C@H](O)C(C)(C)[C@@H]5CC[C@]43C)[C@H]12 , what is its reported IC50?
Return: 4.8
